# SYSTEM UNDER TEST: GSK3b (GST-full length GSK3b) (Homo sapiens)
# Construct: GST-full length GSK3b: [SignalChem G08-9G]; purchased SignalChem G08-9G
# Sequence (P49841 whole entry): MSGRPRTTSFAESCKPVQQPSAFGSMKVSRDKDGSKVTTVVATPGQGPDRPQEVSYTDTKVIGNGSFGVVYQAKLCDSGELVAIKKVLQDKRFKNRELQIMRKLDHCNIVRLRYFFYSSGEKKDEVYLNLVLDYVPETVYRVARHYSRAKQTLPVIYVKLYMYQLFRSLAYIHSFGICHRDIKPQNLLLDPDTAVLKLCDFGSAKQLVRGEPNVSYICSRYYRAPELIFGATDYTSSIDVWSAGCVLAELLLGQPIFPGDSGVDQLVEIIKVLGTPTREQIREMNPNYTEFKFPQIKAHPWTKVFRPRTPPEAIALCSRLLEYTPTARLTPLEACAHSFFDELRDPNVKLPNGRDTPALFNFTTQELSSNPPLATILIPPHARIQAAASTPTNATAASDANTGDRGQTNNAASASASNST
# TEST PROTOCOL: GSK3b TR-FRET kinase inhibition assay
# Type: biochemical
# PARTICULARS: 1 mM ATP; Table 3; read-out: GSK3b TR-FRET 1 mM ATP Average IC50
pIC50: −log10 of the molar value.
Item-by-item account of pIC50

# COMPOUND, SYSTEM UNDER TEST, pIC50
measured = [
    ("CCC1(c2cccc(-c3cncn3C(C)C)c2)C2=C(CC(C)(C)CC2=O)Nc2ncccc21 (single isomer, unassigned) [Compound 149A]", "GSK3b (GST-full length GSK3b) (Homo sapiens)", "6.00 to 7.00"),
    ("CC1(C)CC(=O)C2=C(C1)Nc1ncccc1C2(C)c1cccc(-c2ccncc2N2CCOCC2)c1 (single isomer, unassigned) [Compound 164A]", "GSK3b (GST-full length GSK3b) (Homo sapiens)", "5.30 to 6.00"),
    ("CC1(C)CC(=O)C2=C(C1)Nc1ncc(C(C)(C)C)cc1C2(C)c1ccccc1 (single isomer, unassigned) [Compound 124B]", "GSK3b (GST-full length GSK3b) (Homo sapiens)", "4.70 to 5.30"),
    ("CC1(C)CC(=O)C2=C(C1)Nc1nccc(CC3CC3)c1C2(C)c1ccccc1 (single isomer, unassigned) [Compound 123A]", "GSK3b (GST-full length GSK3b) (Homo sapiens)", "5.30 to 6.00"),
    ("CC1(C)CC(=O)C2=C(C1)Nc1ncc(C(F)(F)F)c(Cl)c1C2(C)c1ccccc1 (single isomer, unassigned) [Compound 141A]", "GSK3b (GST-full length GSK3b) (Homo sapiens)", "5.30 to 6.00"),
    ("CC1(C)CC(=O)C2=C(C1)Nc1ncc(C(F)(F)F)c(F)c1C2(C)c1ccccc1 (single isomer, unassigned) [Compound 136B]", "GSK3b (GST-full length GSK3b) (Homo sapiens)", "4.70 to 5.30"),
    ("CC(C)(C)Cc1cnccc1-c1cccc(C2(C)C3=C(CC(C)(C)CC3=O)Nc3ncc(F)cc32)c1 (single isomer, unassigned) [Compound 168A]", "GSK3b (GST-full length GSK3b) (Homo sapiens)", "6.00 to 7.00"),
    ("CCC1(c2ccccc2)C2=C(CC(C)(C)CC2=O)Nc2ncccc21 (single isomer, unassigned) [Compound 102A]", "GSK3b (GST-full length GSK3b) (Homo sapiens)", "5.30 to 6.00"),
    ("CCC1(c2ccccc2)C2=C(CC(C)(C)CC2=O)Nc2ncc(C(F)(F)F)cc21 (single isomer, unassigned) [Compound 133A]", "GSK3b (GST-full length GSK3b) (Homo sapiens)", "5.30 to 6.00"),
    ("CC1(C)CC(=O)C2=C(C1)Nc1ncc(Br)c(Cl)c1C2(C)c1ccccc1 (single isomer, unassigned) [Compound 145A]", "GSK3b (GST-full length GSK3b) (Homo sapiens)", "5.30 to 6.00"),
    ("CC1(C)CC(=O)C2=C(C1)Nc1ncc(F)cc1C2(C)c1cccc(-c2c(F)cncc2CC2CC2)c1 (single isomer, unassigned) [Compound 169A]", "GSK3b (GST-full length GSK3b) (Homo sapiens)", "6.00 to 7.00"),
    ("C=Cc1ccnc2c1C(C)(c1ccccc1)C1=C(CC(C)(C)CC1=O)N2 (single isomer, unassigned) [Compound 111A]", "GSK3b (GST-full length GSK3b) (Homo sapiens)", "6.00 to 7.00"),
    ("CC1(C)CC(=O)C2=C(C1)Nc1ncc(F)cc1C2(C)c1ccccc1 (single isomer, unassigned) [Compound 107B]", "GSK3b (GST-full length GSK3b) (Homo sapiens)", "5.30 to 6.00"),
]

* * *

Item-by-item account of pIC50
# SYSTEM UNDER TEST: GSK3a (GST-full length GSK3a) (Homo sapiens, UniProt P49840)
# Construct: GST-full length GSK3a [SignalChem G08-10G]; purchased SignalChem G08-10G
# Sequence (P49840 whole entry): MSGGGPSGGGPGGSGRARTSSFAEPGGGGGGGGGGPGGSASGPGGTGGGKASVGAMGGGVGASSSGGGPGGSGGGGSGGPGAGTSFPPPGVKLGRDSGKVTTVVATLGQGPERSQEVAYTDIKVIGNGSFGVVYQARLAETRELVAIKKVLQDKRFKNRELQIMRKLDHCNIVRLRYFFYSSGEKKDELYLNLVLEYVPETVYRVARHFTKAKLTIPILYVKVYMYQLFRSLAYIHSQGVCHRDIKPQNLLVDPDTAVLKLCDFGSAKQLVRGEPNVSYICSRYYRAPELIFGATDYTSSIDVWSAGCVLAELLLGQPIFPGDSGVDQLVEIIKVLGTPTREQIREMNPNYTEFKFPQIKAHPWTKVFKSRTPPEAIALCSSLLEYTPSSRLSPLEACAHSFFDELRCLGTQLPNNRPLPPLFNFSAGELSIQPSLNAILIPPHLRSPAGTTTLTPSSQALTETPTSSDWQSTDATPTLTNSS
# TEST PROTOCOL: GSK3a TR-FRET kinase inhibition assay
# Format: biochemical
# PARTICULARS: 1 mM ATP; Table 5; read-out: GSK3α TR-FRET 1 mM ATP Average IC50
pIC50: −log10 of the molar value.

# COMPOUND, SYSTEM UNDER TEST, pIC50
measured = [
    ("Cc1c(C2(C)C3=C(CC(C)(C)CC3=O)Nc3ncc(F)cc32)cccc1S(C)(=O)=O (single isomer, unassigned) [643A]", "GSK3a (GST-full length GSK3a) (Homo sapiens, UniProt P49840)", "6.00 to 7.00"),
    ("CC1(C)CC(=O)C2=C(C1)Nc1ncc(C(F)(F)F)c(C3CC3)c1C2(C)c1ccccc1 (single isomer, unassigned) [642A]", "GSK3a (GST-full length GSK3a) (Homo sapiens, UniProt P49840)", "4.70 to 5.30"),
    ("CN1C(=O)C2=C(CC1(C)C)Nc1ncc(C(F)F)c(C#N)c1C2(C)c1ccccc1 (single isomer, unassigned) [632B]", "GSK3a (GST-full length GSK3a) (Homo sapiens, UniProt P49840)", "6.00 to 7.00"),
    ("CC1(C)CC(=O)C2=C(C1)Nc1ncc(F)c(C#N)c1C2(C)c1cccc(-c2ccncc2CC(F)(F)F)c1 (single isomer, unassigned) [656B]", "GSK3a (GST-full length GSK3a) (Homo sapiens, UniProt P49840)", "≥ 7.00"),
    ("CC1(C)CC(=O)C2=C(C1)Nc1ncc(C(F)(F)F)cc1C2(C)c1cccc(C(F)F)c1 (single isomer, unassigned) [646A]", "GSK3a (GST-full length GSK3a) (Homo sapiens, UniProt P49840)", "4.70 to 5.30"),
    ("CC1(C)CC(=O)C2=C(C1)Nc1ncc(F)c(C#N)c1C2(C)c1cccc(-c2ccncc2CC(F)(F)F)c1 (single isomer, unassigned) [656A]", "GSK3a (GST-full length GSK3a) (Homo sapiens, UniProt P49840)", "6.00 to 7.00"),
    ("CC(=O)c1cnc2c(c1C#N)C(C)(c1ccccc1)C1=C(CC(C)(C)CC1=O)N2 (single isomer, unassigned) [621A]", "GSK3a (GST-full length GSK3a) (Homo sapiens, UniProt P49840)", "4.70 to 5.30"),
    ("CC1(C)CC(=O)C2=C(C1)Nc1ncccc1C2(C)c1cccc(N(CC2CC2)c2ncccn2)c1 (single isomer, unassigned) [652A]", "GSK3a (GST-full length GSK3a) (Homo sapiens, UniProt P49840)", "4.70 to 5.30"),
    ("CC1(C)CC2=C(C(=O)N1)C(C)(c1ccccc1)c1c(ncc(F)c1C#N)N2 (single isomer, unassigned) [604B]", "GSK3a (GST-full length GSK3a) (Homo sapiens, UniProt P49840)", "≥ 7.00"),
    ("C=Cc1c(C(F)(F)F)cnc2c1C(C)(c1ccccc1)C1=C(CC(C)(C)CC1=O)N2 (single isomer, unassigned) [636A]", "GSK3a (GST-full length GSK3a) (Homo sapiens, UniProt P49840)", "5.30 to 6.00"),
    ("CC1(C)CC(=O)C2=C(Nc3ncc(C(F)F)c(C#N)c3[C@]2(C)c2ccccc2)[C@@H]1F (single isomer, unassigned) [Compound 633C]", "GSK3a (GST-full length GSK3a) (Homo sapiens, UniProt P49840)", "4.70 to 5.30"),
    ("C=Cc1cnc2c(c1Br)C(C)(c1ccccc1)C1=C(CC(C)(C)CC1=O)N2 (single isomer, unassigned) [640B]", "GSK3a (GST-full length GSK3a) (Homo sapiens, UniProt P49840)", "4.70 to 5.30"),
    ("CC1(C)CC(=O)C2=C(C1)Nc1ncc(C#N)c(C#N)c1C2(C)c1ccccc1 (single isomer, unassigned) [605B]", "GSK3a (GST-full length GSK3a) (Homo sapiens, UniProt P49840)", "4.70 to 5.30"),
    ("CC1(C)CC(=O)C2=C(C1)Nc1ncc(C3CC3)c(C#N)c1C2(C)c1ccccc1 (single isomer, unassigned) [619B]", "GSK3a (GST-full length GSK3a) (Homo sapiens, UniProt P49840)", "4.70 to 5.30"),
    ("CC1(C)CC(=O)C2=C(Nc3ncc(C(F)F)c(C#N)c3[C@@]2(C)c2ccccc2)[C@H]1F (single isomer, unassigned) [Compound 633D]", "GSK3a (GST-full length GSK3a) (Homo sapiens, UniProt P49840)", "5.30 to 6.00"),
    ("CC1(C)CC(=O)C2=C(C1)Nc1ncc(F)c(C#N)c1C2(C)c1cccc(C(F)F)c1 (single isomer, unassigned) [634B]", "GSK3a (GST-full length GSK3a) (Homo sapiens, UniProt P49840)", "≥ 7.00"),
    ("CC1(C)CC(=O)C2=C(C1)Nc1ncc3ccccc3c1C2(C)c1ccccc1 (single isomer, unassigned) [606A]", "GSK3a (GST-full length GSK3a) (Homo sapiens, UniProt P49840)", "4.70 to 5.30"),
    ("Cn1ncc2c3c(ncc21)NC1=C(C(=O)CC(C)(C)C1)C3(C)c1cccc(S(C)(=O)=O)c1 (single isomer, unassigned) [649B]", "GSK3a (GST-full length GSK3a) (Homo sapiens, UniProt P49840)", "4.70 to 5.30"),
    ("CN1C(=O)C2=C(CC1(C)C)Nc1ncc(C(F)F)c(C#N)c1C2(C)c1ccccc1 (single isomer, unassigned) [632A]", "GSK3a (GST-full length GSK3a) (Homo sapiens, UniProt P49840)", "5.30 to 6.00"),
    ("CNc1cnc2c(c1C#N)C(C)(c1ccccc1)C1=C(CC(C)(C)CC1=O)N2 (single isomer, unassigned) [610B]", "GSK3a (GST-full length GSK3a) (Homo sapiens, UniProt P49840)", "4.70 to 5.30"),
    ("CC1(C)CC(=O)C2=C(Nc3ncc(C(F)F)c(C#N)c3[C@@]2(C)c2ccccc2)[C@@H]1F (single isomer, unassigned) [Compound 633B]", "GSK3a (GST-full length GSK3a) (Homo sapiens, UniProt P49840)", "5.30 to 6.00"),
    ("CC1(C)CC(=O)C2=C(C1)Nc1ncc(C(F)F)c(C#N)c1C2(C)c1ccccc1 (single isomer, unassigned) [627A]", "GSK3a (GST-full length GSK3a) (Homo sapiens, UniProt P49840)", "6.00 to 7.00"),
    ("CC1(C)CC(=O)C2=C(C1)Nc1ncc(F)c(C#N)c1C2(C)c1cccc(C(F)F)c1 (single isomer, unassigned) [634A]", "GSK3a (GST-full length GSK3a) (Homo sapiens, UniProt P49840)", "4.70 to 5.30"),
    ("Cc1cnc2c(c1C)C(C)(c1ccccc1)C1=C(CC(C)(C)CC1=O)N2 (single isomer, unassigned) [601B]", "GSK3a (GST-full length GSK3a) (Homo sapiens, UniProt P49840)", "4.70 to 5.30"),
    ("Cc1cnc2c(c1C#N)C(C)(c1ccccc1)C1=C(CC(C)(C)CC1=O)N2 (single isomer, unassigned) [603B]", "GSK3a (GST-full length GSK3a) (Homo sapiens, UniProt P49840)", "6.00 to 7.00"),
    ("COc1cnc2c(c1C1CC1)C(C)(c1ccccc1)C1=C(CC(C)(C)CC1=O)N2 (single isomer, unassigned) [626A]", "GSK3a (GST-full length GSK3a) (Homo sapiens, UniProt P49840)", "4.70 to 5.30"),
]
